Each recorded value in this set is attributed to patent US8633245B2.

Please respond with reported Inhibition Rate of PAI-1 Activity (%) for every item in the list.
Target: recombinant human PAI-1 (Homo sapiens, UniProt P05121)
Construct: purchased Molecular Innovations, Inc
Sequence (P05121 24-402): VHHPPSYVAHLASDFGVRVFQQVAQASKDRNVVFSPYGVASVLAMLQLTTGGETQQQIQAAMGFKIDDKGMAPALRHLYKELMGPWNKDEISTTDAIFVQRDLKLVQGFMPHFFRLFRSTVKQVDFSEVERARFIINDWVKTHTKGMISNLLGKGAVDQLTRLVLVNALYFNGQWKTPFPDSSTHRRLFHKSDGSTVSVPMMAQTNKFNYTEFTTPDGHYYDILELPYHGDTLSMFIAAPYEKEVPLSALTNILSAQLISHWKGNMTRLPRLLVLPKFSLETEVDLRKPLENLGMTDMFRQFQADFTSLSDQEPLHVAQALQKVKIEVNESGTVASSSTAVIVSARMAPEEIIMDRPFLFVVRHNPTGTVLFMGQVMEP
Experiment: Test Example 2: human PAI-1 inhibitory activity (tPA fluorogenic substrate, pH 7.4 HEPES buffer)
Format: biochemical
Settings: human PAI-1; compound concentration 0.1 μM
The reply should contain only the number, in %.

stdin: Recorded Inhibition Rate of PAI-1 Activity (%) for O=C(O)CCc1ccc(-c2ccc(OC(F)(F)F)cc2)cc1OCCCSc1ccccc1 [Compound 508] with recombinant human PAI-1 (Homo sapiens, UniProt P05121), please?
stdout: 18

stdin: Recorded Inhibition Rate of PAI-1 Activity (%) for CCCCOc1ccc(Oc2cc(-c3ccc(OC(F)(F)F)cc3)ccc2CCC(=O)O)cc1 [Compound 461] with recombinant human PAI-1 (Homo sapiens, UniProt P05121), please?
stdout: 1

stdin: Recorded Inhibition Rate of PAI-1 Activity (%) for CC(C)(C)c1ccc(Oc2cc(-c3ccc(F)cc3)ccc2OCC(=O)O)cc1 [Compound 459] with recombinant human PAI-1 (Homo sapiens, UniProt P05121), please?
stdout: 26

stdin: Recorded Inhibition Rate of PAI-1 Activity (%) for O=C(O)/C=C/c1ccc(-c2ccc(OC(F)(F)F)cc2)cc1Sc1ccccc1 [Compound 528] with recombinant human PAI-1 (Homo sapiens, UniProt P05121), please?
stdout: 8

stdin: Recorded Inhibition Rate of PAI-1 Activity (%) for CC(C)(C)c1ccc(Oc2cc(-c3ccc(OC(F)(F)F)cc3)ccc2/C=C\C(=O)O)cc1 [Compound 450] with recombinant human PAI-1 (Homo sapiens, UniProt P05121), please?
stdout: 9

stdin: Recorded Inhibition Rate of PAI-1 Activity (%) for CC(C)c1ccccc1Oc1cc(-c2ccc(OC(F)(F)F)cc2)ccc1/C=C/C(=O)O [Compound 490] with recombinant human PAI-1 (Homo sapiens, UniProt P05121), please?
stdout: 6

stdin: Recorded Inhibition Rate of PAI-1 Activity (%) for CCCCN(CC(=O)O)c1cc(-c2ccc(OC(F)(F)F)cc2)ccc1OCCCCc1ccccc1 [Compound 433] with recombinant human PAI-1 (Homo sapiens, UniProt P05121), please?
stdout: 13

stdin: Recorded Inhibition Rate of PAI-1 Activity (%) for CC(C)(C)c1ccc(Oc2cc(-c3ccc(OC(F)(F)F)cc3)ccc2CCCC(=O)O)cc1 [Compound 527] with recombinant human PAI-1 (Homo sapiens, UniProt P05121), please?
stdout: 6

stdin: Recorded Inhibition Rate of PAI-1 Activity (%) for CC(C)c1ccc(Oc2cc(-c3ccc(OC(F)(F)F)cc3)ccc2CCC(=O)O)cc1 [Compound 510] with recombinant human PAI-1 (Homo sapiens, UniProt P05121), please?
stdout: 0

stdin: Recorded Inhibition Rate of PAI-1 Activity (%) for CC(C)(C)c1ccc(Sc2cc(-c3ccc(OC(F)(F)F)cc3)ccc2/C=C\C(=O)O)cc1 [Compound 529] with recombinant human PAI-1 (Homo sapiens, UniProt P05121), please?
stdout: 18

stdin: Recorded Inhibition Rate of PAI-1 Activity (%) for CC(C)(C)c1ccc(COc2ccc(-c3ccc(OC(F)(F)F)cc3)cc2C(=O)O)cc1 [Compound 421] with recombinant human PAI-1 (Homo sapiens, UniProt P05121), please?
stdout: 0

stdin: Recorded Inhibition Rate of PAI-1 Activity (%) for CC(C)Oc1ccc(-c2ccc(OCC(=O)O)c(Oc3ccc(C(C)(C)C)cc3)c2)cc1 [Compound 460] with recombinant human PAI-1 (Homo sapiens, UniProt P05121), please?
stdout: 1

stdin: Recorded Inhibition Rate of PAI-1 Activity (%) for CC(C)(C)c1ccc(Oc2cc(Nc3ccc(OC(F)(F)F)cc3)ccc2/C=C/C(=O)O)cc1 [Compound 531] with recombinant human PAI-1 (Homo sapiens, UniProt P05121), please?
stdout: 3

stdin: Recorded Inhibition Rate of PAI-1 Activity (%) for CC(C)(C)c1ccc(Oc2ccc(Nc3ccc(OC(F)(F)F)cc3)cc2CCC(=O)O)cc1 [Compound 432] with recombinant human PAI-1 (Homo sapiens, UniProt P05121), please?
stdout: 4

stdin: Recorded Inhibition Rate of PAI-1 Activity (%) for O=C(O)C(=O)N(Cc1ccc2ccccc2c1)c1ccc(-c2ccc(OC(F)(F)F)cc2)cc1 [Compound 661] with recombinant human PAI-1 (Homo sapiens, UniProt P05121), please?
stdout: 6

stdin: Recorded Inhibition Rate of PAI-1 Activity (%) for CC(C)(C)c1ccc(Oc2cc(-c3cc(Cl)ccc3Cl)ccc2OCC(=O)O)cc1 [Compound 455] with recombinant human PAI-1 (Homo sapiens, UniProt P05121), please?
stdout: 9

stdin: Recorded Inhibition Rate of PAI-1 Activity (%) for CCCCCOc1cc(-c2ccc(OC(F)(F)F)cc2)ccc1N(CCCCc1ccccc1)CC(=O)O [Compound 643] with recombinant human PAI-1 (Homo sapiens, UniProt P05121), please?
stdout: 0

stdin: Recorded Inhibition Rate of PAI-1 Activity (%) for CCCCC(Oc1cc(Oc2ccc(C(C)(C)C)cc2)cc(-c2ccc(OC(F)(F)F)cc2)c1)C(=O)O (centres unmarked) [Compound 426] with recombinant human PAI-1 (Homo sapiens, UniProt P05121), please?
stdout: 10

stdin: Recorded Inhibition Rate of PAI-1 Activity (%) for CC(C)(C)c1ccc(Oc2cc(-c3ccc4ccccc4c3)ccc2CCC(=O)O)cc1 [Compound 470] with recombinant human PAI-1 (Homo sapiens, UniProt P05121), please?
stdout: 3

stdin: Recorded Inhibition Rate of PAI-1 Activity (%) for CCCCCOc1ccc(-c2ccc(C(C)C)cc2)cc1N(CCCCc1ccccc1)C(=O)C(=O)O [Compound 678] with recombinant human PAI-1 (Homo sapiens, UniProt P05121), please?
stdout: 19

stdin: Recorded Inhibition Rate of PAI-1 Activity (%) for CCCCCCCCOc1ccc(-c2ccc(OC(F)(F)F)cc2)cc1N(CCCCc1ccccc1)C(=O)C(=O)O [Compound 653] with recombinant human PAI-1 (Homo sapiens, UniProt P05121), please?
stdout: 43

stdin: Recorded Inhibition Rate of PAI-1 Activity (%) for CC(C)(C)c1ccc(Sc2cc(-c3ccc(OC(F)(F)F)cc3)ccc2CC(=O)O)cc1 [Compound 530] with recombinant human PAI-1 (Homo sapiens, UniProt P05121), please?
stdout: 17

stdin: Recorded Inhibition Rate of PAI-1 Activity (%) for COc1ccc(-c2ccc(OCC(=O)O)c(Oc3ccc(C(C)(C)C)cc3)c2)cc1 [Compound 445] with recombinant human PAI-1 (Homo sapiens, UniProt P05121), please?
stdout: 0
